FYI, the data here is from PubChem BioAssay.

tested_on: Short transient receptor potential channel 4 (Mus musculus)
test_name: calcium flux activators in TRPC4/5HT1a cells, counter-screen for TRPC4 activator project, cell-based, second counter screen, HEK293 TRPC4/5HT1a, Fluo-4 (AID 434977)
conditions: Fluo-4 calcium flux, at 10 µM
Active and inactive are the calls of the source.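 How the source made its calls: active means calcium signal rise above buffer-control mean plus 5 SD in both duplicates, and also a hit in the primary screen; inactive means the rest.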
Respond only with the outcome that fits, drawn from active, inactive

Before answering, review these 2 worked examples.
CSc1nnc(Cc2sc(-c3ccccc3)nc2-c2ccccc2)o1 ... inactive
CCOC(=O)C1=NN(c2ccccc2C)C2=NC(C)=C(C(=O)OC)C(c3cccc(OC)c3)N12 (centres undefined) ... inactive

Query block: Hey, what did the test say about O=C(NC1CCCN(Cc2ccc(Cl)cc2)C1)C1CCC1 (centres undefined) ?
Result block: active

Query block: Hey, what did the test say about Cc1cc(N2CCC(C)CC2)nc2cccc(O)c12 ?
Result block: inactive

Query block: Hey, what did the test say about N=c1oc2ccc(Cl)cc2cc1C(=O)NC1CCCCCC1 ?
Result block: inactive

Query block: Hey, what did the test say about NC(=O)C1CCCN(CCc2ccccc2)C1 (centres undefined) ?
Result block: active

Query block: Hey, what did the test say about Cc1cc(NCc2ccccc2)nc(N2CCOCC2)n1 ?
Result block: inactive

Query block: Hey, what did the test say about Cc1ccc(NC(=O)Nc2cccc([N+](=O)[O-])c2)nc1 ?
Result block: inactive

Query block: Hey, what did the test say about CCc1ccc(OCc2ccc(C(=O)NCc3ccccn3)o2)cc1 ?
Result block: inactive

Query block: Hey, what did the test say about CCOC(=O)c1c(NC(NC(C)=O)C(Cl)(Cl)Cl)sc2c1CCCC2 (centres undefined) ?
Result block: inactive
